- EXPERIMENTAL DETAILS: NCI Yeast Anticancer Drug Screen. Data for the sgs1 mgt1 strain (AID 161);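 further: 0% = growth of cultures given vehicle only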
- EXPERIMENTAL CONDITIONS: S. cerevisiae sgs1 mgt1 strain, at 50.0 µM, stronger effect = higher value
About 79,000 compounds went through this panel and 15% of them were active in at least one assay; those are over-represented in the sample as a whole.

[
  {
    "MOLECULE": "O=C(/C=C/c1ccccc1)CC1OC(=O)c2ccccc21 (stereo unspecified)",
    "growth inhibition (%)": 10.3
  },
  {
    "MOLECULE": "O=C1c2ccccc2S(=O)N1OCc1ccccc1 (stereo unspecified)",
    "growth inhibition (%)": 15.4
  },
  {
    "MOLECULE": "COc1ccccc1C1OC2=C(Nc3ccc(Cl)cc3N2)C1=O (stereo unspecified)",
    "growth inhibition (%)": -17.5
  },
  {
    "MOLECULE": "CO[C@H]1C=CO[C@@]2(C)Oc3c(C)c(O)c4c(O)c(c(CN5CCN(C)CC5)c(O)c4c3C2=O)NC(=O)/C(C)=C\\C=C[C@H](C)[C@H](O)C(C)[C@@H](O)C(C)[C@H](OC(C)=O)[C@@H]1C (stereo partly specified)",
    "growth inhibition (%)": -21.1
  },
  {
    "MOLECULE": "CC(O)COc1ccc(C(C)(C)C)cc1 (stereo unspecified)",
    "growth inhibition (%)": -2.45
  },
  {
    "MOLECULE": "CN(C)CCNC(=O)c1cccc(C(=O)Nc2ccccc2)c1[N+](=O)[O-]",
    "growth inhibition (%)": -7.7
  },
  {
    "MOLECULE": "CC(O)C(=O)OCCOc1ccccc1 (stereo unspecified)",
    "growth inhibition (%)": -3.05
  },
  {
    "MOLECULE": "CC(C)(C)CNCCCBr",
    "growth inhibition (%)": -9.05
  },
  {
    "MOLECULE": "O=C1OC[C@H]2[C@@H]1[C@H]1O[C@@H]2C2=C(CCC2)C1=O",
    "growth inhibition (%)": -43.5
  },
  {
    "MOLECULE": "C[N+](C)(CCCN1C(=O)c2cccc3c(Br)ccc(c23)C1=O)Cc1ccc(Cl)c(Cl)c1",
    "growth inhibition (%)": 98.3
  },
  {
    "MOLECULE": "c1ccc(C2=NCCN2)nc1",
    "growth inhibition (%)": -5.7
  },
  {
    "MOLECULE": "COC(=O)Cc1ccccc1-n1nccc1S(C)=O (stereo unspecified)",
    "growth inhibition (%)": 14.3
  },
  {
    "MOLECULE": "CC1=C2CCCCC2(C)C=C(C(=O)O)C1=O (stereo unspecified)",
    "growth inhibition (%)": 18.8
  },
  {
    "MOLECULE": "Cc1cc(C)c(C#N)c(N)n1",
    "growth inhibition (%)": -14.3
  },
  {
    "MOLECULE": "CNS(=O)(=O)c1ccc(Br)cc1",
    "growth inhibition (%)": -9.85
  },
  {
    "MOLECULE": "O=C(NCCCCCCNC(=O)c1ccccn1)c1ccccn1",
    "growth inhibition (%)": 9.05
  },
  {
    "MOLECULE": "Cc1ccc(I)c(C)c1",
    "growth inhibition (%)": -39.4
  },
  {
    "MOLECULE": "COc1cc([N+](=O)[O-])ccc1NC(=O)Nc1nccs1",
    "growth inhibition (%)": 11.9
  },
  {
    "MOLECULE": "O=C1C(=Cc2cccnc2)C(=O)c2ccccc21",
    "growth inhibition (%)": 42.4
  },
  {
    "MOLECULE": "C=CC(=NC(C)C)N(C)c1ccccc1",
    "growth inhibition (%)": 1.7
  },
  {
    "MOLECULE": "O=C(Oc1c([N+](=O)[O-])cc(-c2ccccc2)cc1[N+](=O)[O-])c1ccccc1",
    "growth inhibition (%)": 9.05
  },
  {
    "MOLECULE": "COc1ccc(OC)c(N=Cc2cccs2)c1",
    "growth inhibition (%)": 20.9
  },
  {
    "MOLECULE": "Cn1c(-c2ccccc2)c/c(=N\\NS(C)(=O)=O)c2cc(S(=O)(=O)O)ccc21",
    "growth inhibition (%)": -0.25
  },
  {
    "MOLECULE": "O=C(c1ccc2c(c1)OCO2)C(O)c1ccc(Cl)cc1 (stereo unspecified)",
    "growth inhibition (%)": 1.85
  },
  {
    "MOLECULE": "CCC(O)(CC)Cc1ccc(Cl)cc1",
    "growth inhibition (%)": -0.4
  },
  {
    "MOLECULE": "NC(=O)C(CC(=O)O)NC(=O)c1ccccc1 (stereo unspecified)",
    "growth inhibition (%)": 3.45
  },
  {
    "MOLECULE": "CC1CCCCC12COC(O)CO2 (stereo unspecified)",
    "growth inhibition (%)": -19.1
  },
  {
    "MOLECULE": "Cc1ccc([N+](=O)[O-])cc1N=C=O",
    "growth inhibition (%)": -31.1
  },
  {
    "MOLECULE": "NC(=O)CO",
    "growth inhibition (%)": 17.6
  },
  {
    "MOLECULE": "CC(C)C(CC1CCCCC1)C(C)O (stereo unspecified)",
    "growth inhibition (%)": -14.6
  },
  {
    "MOLECULE": "O=C(O)O.O=C(O)O.O=C(O)O.[Co]",
    "growth inhibition (%)": -2.75
  }
]
